Tested on: DU-145 prostate
Experiment: NCI tumour cell line growth inhibition, 48 h
QUANTITY_KIND: TGI

The cases that follow already have their TGI on record.
Kindly state the measured TGI obtained for O=C1c2ccccc2C(=O)c2sc(Nc3ccccc3C(F)(F)F)nc21 with DU-145 prostate. 31.7 µM

Now the same for CN(CCO)CCCC1COc2ccccc2O1 (configuration not stated) > 100 µM

Now the same for Nc1cc(O)ccc1N=Nc1ccc(-c2nc3ccccc3[nH]2)cc1 > 100 µM

---
Kindly state the measured TGI obtained for Oc1ccc(-c2nc3ccc4[nH]ncc4c3c3c2CCCC3)c(F)c1 with DU-145 prostate. 13.2 µM

Now the same for CC(=O)c1ccccc1NCC(=O)Nn1cnc2ccc(S(=O)(=O)Nc3ccccc3C(C)=O)cc2c1=O > 100 µM

Now the same for CSc1cc(-c2ccccn2)nc(-c2ccccn2)c1 26.6 µM

Now the same for Cc1ccc(-n2cc(-c3ccc(Cl)cc3)c3c(N/N=C4\SCC(=O)N4C)ncnc32)cc1 > 100 µM

Now the same for CC(=O)OC1=CC2=CC[C@H]3[C@@H]4CCC(=O)[C@@]4(C)CC(=O)[C@]3(S)[C@@]2(C)CC1 > 100 µM

Now the same for CCC(c1ccc(OC)cc1)C(CC)c1ccc(O)c(CN2CCN(C)CC2)c1 (configuration not stated) 24.1 µM

Now the same for CCOP(=O)(OCC)C(c1ccccc1)N(C(=O)NC(F)(F)F)c1cccc(F)c1 (configuration not stated) > 100 µM

Now the same for NNc1nncc2[nH]cnc12 > 100 µM

Now the same for Cc1ccc(C(=O)N(Cc2ccccc2)Cc2ccccc2)cc1N=NN(C)C > 100 µM

----------
Test system: UACC-62 melanoma
Experiment: NCI tumour cell line growth inhibition, 48 h
Catalogue of GI50 values

Kindly state the measured GI50 obtained for COc1cccc(-c2ccc3c(c2)C2CCN(Cc4ccccc4)C3C2)c1 (centres undefined) with UACC-62 melanoma. 8480 nM

Now the same for Clc1ccc(-c2csc(Nc3cccc(-c4csc(-c5ccccc5)n4)c3)n2)cc1 6240 nM

Now the same for CC1=CC(=O)C(C(C)C)=CC1=Nc1cc(Br)c(O)c(Br)c1 2860 nM

Now the same for COc1cc2c(cc1OC)C(Sc1ccc(SC)cc1)c1c(nc(N)c(C#N)c1N)O2 (centres undefined) 1230 nM

Now the same for O=C(O)c1cn(C2CC2)c2cc(N3CCN(C(=O)Nc4nc(-c5ccccc5)cs4)CC3)c(F)cc2c1=O 670 nM

Now the same for COc1ccc2c(c1)CC[C@@H]1[C@@H]2CC[C@]2(C)[C@@H](NC(=O)/C=C/c3ccc(O)c(O)c3)CC[C@@H]12 2120 nM

Now the same for COc1ccccc1C1=C(Nc2ccccc2)C(=O)NC1=O > 25000 nM

Now the same for O=[N+]([O-])c1ccc(Oc2nc(Nc3ccc(O[C@H]4CO[C@H]5[C@@H]4OC[C@@H]5O)c(Cl)c3)ncc2F)c(Cl)c1 843 nM

Now the same for COc1ccc(C(c2ccc(OCCN(C)C)cc2)c2cc3ccccc3c3ccccc23)cc1 (centres undefined) 1810 nM

----------
Catalogue of GI50 values
System: HS 578T breast
Assay: NCI tumour cell line growth inhibition, 48 h

The cases that follow already have their GI50 on record.
Which measured GI50 value corresponds to N[C@@H]1C(=O)N2C(C(=O)OC(c3ccccc3)c3ccccc3)=C(CCl)CS[C@H]12 ? 46.8 µM

Now the same for CC(C)N1CCN(Cc2ccc3c(NNC(=O)c4ccccc4)nc4cc(F)ccc4n23)CC1 4.23 µM

Now the same for CCN(Cc1ccc(F)cc1)c1ccc(CO)c(C)c1 11.7 µM

Now the same for C=C1C(=O)O[C@H]2[C@H]1CC/C(COC(=O)CCSCCC(=O)OC/C1=C/CC[C@@]3(C)O[C@H]3[C@H]3OC(=O)C(=C)[C@@H]3CC1)=C\CC[C@@]1(C)O[C@@H]21 3.18 µM

Now the same for COc1ccccc1C1=C(Nc2ccccc2)C(=O)NC1=O 6.25 µM

# ---- query compound ----
Which measured GI50 value corresponds to COc1ccc(C(c2ccc(OCCN(C)C)cc2)c2cc3ccccc3c3ccccc23)cc1 (stereo not given) ? 1.66 µM

----------
Test system: SF-295 CNS
Assay: NCI tumour cell line growth inhibition, 48 h
QUANTITY_KIND: GI50

The cases that follow already have their GI50 on record.
Which measured GI50 value corresponds to COc1ccccc1C1=C(Nc2ccccc2)C(=O)NC1=O ? > 25 µM

Now the same for COc1ccc(-c2ccc(-c3ccc(C(=N)N)nc3)s2)cc1Cl 1.8 µM

Now the same for Clc1ccc(-c2csc(Nc3cccc(-c4csc(-c5ccccc5)n4)c3)n2)cc1 15.9 µM

Now the same for COc1ccc(/C=c2\sc3n(c2=O)C2C(NN=3)N(C)C(=O)N2C)cc1 (stereo not given) 0.917 µM

---
Which measured GI50 value corresponds to COc1ccc2c(C3(c4cn(C)c5cc(OC)ccc45)C(=O)Nc4ccc(Cl)cc43)cn(C)c2c1 ? 5.16 µM

----------
Test system: OVCAR-4 ovarian
Experiment: NCI tumour cell line growth inhibition, 48 h
Catalogue of TGI values

The cases that follow already have their TGI on record.
Which measured TGI value corresponds to CC(=O)N1N=C(c2ccc(Nc3ccnc4cc(Cl)ccc34)cc2)CC1c1ccc(Cl)cc1 (stereo not given) ? > 100 µM

Now the same for NC(=O)c1ccccc1NC(=O)C(=O)Cc1nc2ccccc2[nH]c1=O > 100 µM

Now the same for COc1ccccc1C1=C(Nc2ccccc2)C(=O)NC1=O > 25 µM

Now the same for COC(=O)C1=C(c2ccc(OC)c(OC)c2)OC(c2cc(OC)c(OC)c(OC)c2)C1 (stereo not given) > 100 µM

Now the same for N#CC1CCCCOCCOCCOCCOCCOCCCCCC1=O (stereo not given) > 100 µM

---
Which measured TGI value corresponds to CC(=O)c1c(CN(C)c2ccccc2)n([O-])c2ccccc2[n+]1=O ? > 100 µM

Now the same for CCC(c1ccc(OC)cc1)C(CC)c1ccc(O)c(CN2CCN(C)CC2)c1 (stereo not given) 22.4 µM

Now the same for Cc1ccc(/C=C2\CN(C(=O)C(Cl)Cl)C/C(=C\c3ccc(C)cc3)C2=O)cc1 > 100 µM

Now the same for O=[N+]([O-])c1ccc(C(Nc2ccccc2)P(c2ccccc2)c2ccccc2)cc1 (stereo not given) > 100 µM

----------
Test system: TK-10 renal
Assay: NCI tumour cell line growth inhibition, 48 h
Catalogue of TGI values

Which measured TGI value corresponds to CCOc1cc(Br)c(C(C)NC(=O)c2cccc(OC)c2)cc1OCC (stereo unspecified) ? > 100 µM

Now the same for Brc1ccc2c3c1[C@H]1O[C@H]1c1cccc(c1-3)[C@@H]1O[C@H]21 37.4 µM

Now the same for CCOP(=O)(OCC)C(c1ccccc1)N(C(=O)NC(F)(F)F)c1cccc(F)c1 (stereo unspecified) > 100 µM

Now the same for Nc1c(O)cc(N=C2C(=O)C=CC=C2C(=O)O)c(O)c1C(=O)O > 100 µM

Now the same for Cc1ccc2c(=O)c(C(=O)Nn3c(C)csc3=S)c[nH]c2n1 > 100 µM

Now the same for CCCCCCCCCCCCCCCCNCCCN(C)CCCN 29.3 µM

Now the same for Cc1cc(-c2ccccc2)nc(Nc2nc3ccccc3o2)n1 > 100 µM

Now the same for C=CC(OC(C)=O)c1ccc(OC(=O)C(C)C)c(OC)c1 (stereo unspecified) 11.5 µM

Now the same for Brc1ccc2[nH]cc(-c3nc(-c4c[nH]c5ncccc45)cs3)c2c1 17.8 µM

Now the same for Cc1ccc(NC(=O)C2C(=O)N(c3ccc(C)c(C)c3)C(=O)/C2=N\NC(N)=O)cc1C (stereo unspecified) > 100 µM

Now the same for Cc1cc(Nc2nc(-c3cccnc3)nc3ccccc23)n[nH]1 99.1 µM

----------
System: MDA-MB-435
I would appreciate it if you answered using one of these outcomes: active, inactive

Known results for compounds:
I would be grateful if you could indicate the recorded call for COc1cccc(-c2nn(-c3ccccc3)cc2-c2ccnc(NCCNC(=O)Nc3cccc(C(F)(F)F)c3)c2)c1 . inactive

Now the same for N#Cc1c(Br)n(C2OC(CO)C(O)C2O)c2ncnc(N)c12 (stereo not given) inactive

Now the same for CC(C)N1CCN(Cc2ccc3c(NNC(=O)c4ccccc4)nc4cc(F)ccc4n23)CC1 inactive

Now the same for Brc1ccc2[nH]cc(-c3nc(-c4c[nH]c5ncccc45)cs3)c2c1 inactive

Pending compound:
I would be grateful if you could indicate the recorded call for Cc1ccc(/C=C2\CN(C(=O)C(Cl)Cl)C/C(=C\c3ccc(C)cc3)C2=O)cc1 . active

----------
Tested on: CAKI-1 renal
Assay: NCI tumour cell line growth inhibition, 48 h
Catalogue of TGI values

Which measured TGI value corresponds to O=[N+]([O-])c1ccc(C(Nc2ccccc2)P(c2ccccc2)c2ccccc2)cc1 (stereo not given) ? > 100 µM

---
Which measured TGI value corresponds to COC(OC)C1OCC(n2cc(F)c(=O)[nH]c2=O)C1O (stereo not given) ? > 100 µM

Now the same for O=C(O)C1CCCCC1c1c2ccc(=O)c(O)c-2oc2c(O)c(O)ccc12 (stereo not given) > 100 µM

Now the same for Cc1cn(C2CC(N)C(C(=O)NCC(=O)O)O2)c(=O)[nH]c1=O (stereo not given) > 100 µM
